Hey, just so you know, these numbers are from ChEMBL document CHEMBL1133222.

target: Endothelin receptor type B (Rattus norvegicus); conditions: Cerebellum
Description: Inhibition of (125 I)-endothelin 1 binding to endothelin B receptor in rat cerebellum
Listing of entries alongside the reported Binding affinity.

- SMI: "COc1ccc(Cc2c(C(=O)O)n(Cc3cc4c(cc3Cl)OCO4)c3ccccc3c2=O)c(OCC(=O)O)c1"
  SYSTEM TESTED: "Endothelin receptor type B (Rattus norvegicus)"
  UNIT INFO: "nM"
  Binding affinity: 549
- SMI: "O=C(O)c1c(Cc2cccnc2)c(=O)c2ccccc2n1Cc1cc2c(cc1Cl)OCO2"
  SYSTEM TESTED: "Endothelin receptor type B (Rattus norvegicus)"
  UNIT INFO: "nM"
  Binding affinity: 1600
- SMI: "CCc1cc2c(cc1Cn1c(C(=O)[O-])c(Cc3cccc(C(=O)[O-])c3)c(=O)c3ccccc31)OCO2.[K+].[K+]"
  SYSTEM TESTED: "Endothelin receptor type B (Rattus norvegicus)"
  UNIT INFO: "nM"
  Binding affinity: 571
- SMI: "COC(=O)c1cccc(Cc2c(C(=O)O)n(Cc3cc4c(cc3Cl)OCO4)c3ccccc3c2=O)c1"
  SYSTEM TESTED: "Endothelin receptor type B (Rattus norvegicus)"
  UNIT INFO: "nM"
  Binding affinity: 747
